# Test system: CCRF-CEM lymphoblasts
# Assay Text: BrU incorporation analysis (RNA synthesis)
# Format: cell-based, human
# Protocol Conditions: 5×IC50, 24 h
# Description: To further characterise the mode of action of studied compounds, we analysed the cell cycle profile of CCRF-CEM cells treated with compounds for 24 h. […] The compounds ED1–ED9 and ED12 induced arrest in G2/M phase of the cell cycle (Figure 2(A)). […] Prior to the trypsinisation, cells were treated with 1 mM BrU for 30 min. […] The percentage of BrU positive cells was quantified using CellQuest software.
Reported BrU, % of positive cells values for the following molecules.

>  <Molecule>
CC(=O)Oc1c(Cn2cc([C@]3(O)CC[C@H]4[C@@H]5CCc6cc(O)ccc6[C@H]5CC[C@@]43C)nn2)cc(C)cc1Cn1cc([C@]2(O)CC[C@H]3[C@@H]4CCc5cc(O)ccc5[C@H]4CC[C@@]32C)nn1 [ED7]

>  <BrU, % of positive cells (%)>
27.20

$$$$
>  <Molecule>
C[C@]12CC[C@@H]3c4ccc(O)cc4CC[C@H]3[C@@H]1CC[C@@]2(O)c1cn(Cc2cccc(Cn3cc([C@]4(O)CC[C@H]5[C@@H]6CCc7cc(O)ccc7[C@H]6CC[C@@]54C)nn3)n2)nn1 [ED, reference compound]

>  <BrU, % of positive cells (%)>
15.43

$$$$

The measured values listed here are drawn from paper PMC467089.
